What exon inclusion enrichment index was measured for each of the following?
B1: mRNA-splicing (parent)
chain: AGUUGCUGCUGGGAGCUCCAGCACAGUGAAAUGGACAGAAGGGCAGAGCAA

# Variants of: B1
# Experimental Protocol: exon inclusion enrichment index; higher = more inclusion; WT1 exon 5 minigene, HEK293
Answers are plain numbers.

Answered examples (3):
G5U G8U C9U A29C: 0.0814
C6A U7A C9A U10A A25U G26U: 0.734
G2U C6A U7C C9A U10C: 4.3

Please give exon inclusion enrichment index for each item listed below.
1. G5C C6A U7C G8A U10A A40G
2. U3C U4A G5A U7C G8A U10C
3. C6A U7C C9A U10C G26C U27C
4. G5A C6U U7A G8U C9A U10A G11C

0.0695
2.12
4.37
0.176

Please give exon inclusion enrichment index for each item listed below.
1. G5A C6G U7G C9A G12A G13C
2. G2U U3C G5C C6U G8C C9U U10C
3. G5A C6G U7G C9A A23C C24G
4. G5A U7C G8A U10C A37G G38C
5. U3G U4C G5C C6U G8C C9U U10C
6. G5A C6U U7A G8U C9A G34A A35C
7. G5A C6U U7A G8U C9A U10A G11U

0.0057
3.63
0.0142
2.62
1.03
0.0538
0.0948

Please give exon inclusion enrichment index for each item listed below.
1. G5A C6G U7G C9A G41C
2. G5C C6A U7C G8A U10A G41U G42C
3. G5C C6A U7C G8A U10A G12U
4. G5C C6U G8C C9U U10C G28A A29G
5. G5C C6U G8C C9U U10C C19A
6. C6A U7C C9A U10C C44U A45G
7. G5A C6G U7G C9A A25U

1: 0.013; 2: 0.369; 3: 0.0134; 4: 0.736; 5: 0.881; 6: 2.34; 7: 0.00086

Please give exon inclusion enrichment index for each item listed below.
1. G5C C6A U7C G8A U10A G26U U27C
2. G5C C6U G8C C9U U10C A29U
3. A40C G41U
4. G5A C6G U7G C9A A37G

0.613
0.63
0.0496
0.00135

Please give exon inclusion enrichment index for each item listed below.
1. G5U G8U C9U
2. G5A C6U U7A G8U C9A A25C
3. G5C C6U G8C C9U U10C A31C U32G

1: 0.16; 2: 0.501; 3: 2.49

Please give exon inclusion enrichment index for each item listed below.
1. G43U
2. G5U G8U C9U A37C G38U
3. G5A C6G U7G C9A U17G C18A

1. 0.11
2. 0.0543
3. 0.00242

Please give exon inclusion enrichment index for each item listed below.
1. C6A U7C C9A U10C C18U C19G
2. C6A U7C C9A U10C A39U A40C
3. G5U G8U C9U G46U

[1.93, 3.44, 0.0708]

Please give exon inclusion enrichment index for each item listed below.
1. C6A U7C C9A U10C A29C
2. C6A U7A C9A U10A G43A C44U
3. G5A C6G U7G C9A A40C G41A
4. G5C C6A U7C G8A U10A C24U A25G
5. G5A C6G U7G C9A G28A A29G
6. G5C C6U G8C C9U U10C A29G A30U

[3.21, 0.656, 0.00061, 0.334, 0.000786, 0.538]

Please give exon inclusion enrichment index for each item listed below.
1. G5A C6U U7A G8U C9A G12A
2. G5A C6U U7A G8U C9A G11C G12U

0.0361
0.0197
